This listing pairs molecules with measured IC50.
System: MOLM14 D835Y cells
assay_summary: MOLM14 D835Y cell viability assay (Cell Titer Glo)
Assay type: cell-based
measurement_conditions: Homo sapiens, MOLM-14, 48 h
readout: IC50 (nM)

[[record]]
molecule = "CC(C)(C)c1cn2c(-c3cc(F)cc(N[C@@H]4CCCNC4)n3)cnc2cn1"
readout = "IC50"
endpoint_unit = "nM"
value_measured = 86

[[record]]
molecule = "FC(F)COc1cn2c(-c3cccc(N[C@@H]4CCCNC4)n3)cnc2cn1"
readout = "IC50"
endpoint_unit = "nM"
value_measured = 15

[[record]]
molecule = "O=C1CCCN1c1cn2c(-c3nc(N[C@H]4CNCC[C@@H]4F)c(F)cc3F)cnc2cn1"
readout = "IC50"
endpoint_unit = "nM"
value_measured = 21

[[record]]
molecule = "CC(C)(C)c1cn2c(-c3nc(N[C@@H]4CCCNC4)c(F)cc3F)cnc2cn1"
readout = "IC50"
endpoint_unit = "nM"
value_measured = 21

[[record]]
molecule = "CC(O)(c1cn2c(-c3cc(F)cc(N[C@H]4CNC[C@@H]4F)n3)cnc2cn1)C(F)(F)F (single isomer, unassigned)"
readout = "IC50"
endpoint_unit = "nM"
value_measured = 344

[[record]]
molecule = "FC(F)(F)COc1cn2c(-c3cccc(N[C@H]4CNCC45CC5)n3)cnc2cn1"
readout = "IC50"
endpoint_unit = "nM"
value_measured = 23

[[record]]
molecule = "FC(F)c1cn2c(-c3cccc(N[C@@H]4CCNC4)n3)cnc2cn1"
readout = "IC50"
endpoint_unit = "nM"
value_measured = 14

[[record]]
molecule = "CC1(c2cn3c(-c4cccc(N[C@@H]5CCNC5)n4)cnc3cn2)CC1"
readout = "IC50"
endpoint_unit = "nM"
value_measured = 6

[[record]]
molecule = "O=C1NCCN1c1cn2c(-c3cccc(N[C@H]4CNC[C@@H]4F)n3)cnc2cn1"
readout = "IC50"
endpoint_unit = "nM"
value_measured = 41

[[record]]
molecule = "CC(C)(C)c1cn2c(-c3nc(N[C@H]4CNCC[C@@H]4F)c(F)cc3F)cnc2cn1"
readout = "IC50"
endpoint_unit = "nM"
value_measured = 44

[[record]]
molecule = "O=S1(=O)CCCN1c1cn2c(-c3cccc(N[C@H]4CNCC[C@@H]4F)n3)cnc2cn1"
readout = "IC50"
endpoint_unit = "nM"
value_measured = 5

[[record]]
molecule = "O=S1(=O)CCCCN1c1cn2c(-c3nc(N[C@H]4CNCC[C@@H]4F)c(F)cc3F)cnc2cn1"
readout = "IC50"
endpoint_unit = "nM"
value_measured = 193

[[record]]
molecule = "CC1(c2cn3c(-c4cccc(N[C@@H]5CCCNC5)n4)cnc3cn2)CC1"
readout = "IC50"
endpoint_unit = "nM"
value_measured = 7

[[record]]
molecule = "FC(F)c1cn2c(-c3cccc(N[C@H]4CNC[C@@H]4C(F)(F)F)n3)cnc2cn1"
readout = "IC50"
endpoint_unit = "nM"
value_measured = 2

[[record]]
molecule = "O=C1CCCCN1c1cn2c(-c3cccc(N[C@H]4CNC[C@@H]4F)n3)cnc2cn1"
readout = "IC50"
endpoint_unit = "nM"
value_measured = 460

[[record]]
molecule = "FC(F)(F)C1(c2cn3c(-c4cccc(N[C@@H]5CCCNC5)n4)cnc3cn2)CC1"
readout = "IC50"
endpoint_unit = "nM"
value_measured = 18

[[record]]
molecule = "FC(F)(F)C1(c2cn3c(-c4cccc(N[C@@H]5CCNC5)n4)cnc3cn2)CC1"
readout = "IC50"
endpoint_unit = "nM"
value_measured = 14

[[record]]
molecule = "CC(C)(C)c1cn2c(-c3cccc(N[C@H]4CNC[C@@H]4F)n3)cnc2cn1"
readout = "IC50"
endpoint_unit = "nM"
value_measured = 58

[[record]]
molecule = "CC(C)(C)c1cn2c(-c3nc(N[C@H]4CNC[C@@H]4F)c(F)cc3F)cnc2cn1"
readout = "IC50"
endpoint_unit = "nM"
value_measured = 163

[[record]]
molecule = "FC(F)COc1cn2c(-c3cccc(N[C@H]4CNC[C@@H]4F)n3)cnc2cn1"
readout = "IC50"
endpoint_unit = "nM"
value_measured = 30

[[record]]
molecule = "O=S1(=O)CCCN1c1cn2c(-c3nc(N[C@H]4CNC[C@@H]4F)c(F)cc3F)cnc2cn1"
readout = "IC50"
endpoint_unit = "nM"
value_measured = 55

[[record]]
molecule = "FC(F)(F)C1(c2cn3c(-c4cccc(N[C@H]5CNCC56CC6)n4)cnc3cn2)CC1"
readout = "IC50"
endpoint_unit = "nM"
value_measured = 7

[[record]]
molecule = "CC(O)(c1cn2c(-c3cccc(N[C@@H]4CCCNC4)n3)cnc2cn1)C(F)(F)F (stereo partly drawn) [Compound 79]"
readout = "IC50"
endpoint_unit = "nM"
value_measured = 84

[[record]]
molecule = "O=C1CCCN1c1cn2c(-c3cccc(N[C@@H]4CCCNC4)n3)cnc2cn1"
readout = "IC50"
endpoint_unit = "nM"
value_measured = 24

[[record]]
molecule = "CC(C)(O)c1cn2c(-c3cccc(N[C@H]4CNC[C@@H]4F)n3)cnc2cn1"
readout = "IC50"
endpoint_unit = "nM"
value_measured = 94

[[record]]
molecule = "O=C1CCCN1c1cn2c(-c3cccc(N[C@H]4CNC[C@@H]4F)n3)cnc2cn1"
readout = "IC50"
endpoint_unit = "nM"
value_measured = 23

[[record]]
molecule = "FC(F)(F)COc1cn2c(-c3cccc(N[C@@H]4CCNC4)n3)cnc2cn1"
readout = "IC50"
endpoint_unit = "nM"
value_measured = 23

[[record]]
molecule = "O=C1CCCCN1c1cn2c(-c3cccc(N[C@H]4CNCC[C@@H]4F)n3)cnc2cn1"
readout = "IC50"
endpoint_unit = "nM"
value_measured = 92

[[record]]
molecule = "O=C1CCCN1c1cn2c(-c3nc(N[C@@H]4CCCNC4)c(F)cc3F)cnc2cn1"
readout = "IC50"
endpoint_unit = "nM"
value_measured = 26

[[record]]
molecule = "FC(F)c1cn2c(-c3cccc(N[C@@H]4CCCNC4)n3)cnc2cn1"
readout = "IC50"
endpoint_unit = "nM"
value_measured = 10

[[record]]
molecule = "CC(C)Oc1cn2c(-c3cccc(N[C@H]4CNCC[C@@H]4F)n3)cnc2cn1"
readout = "IC50"
endpoint_unit = "nM"
value_measured = 19

[[record]]
molecule = "CC1(c2cn3c(-c4cccc(N[C@H]5CNC[C@@H]5F)n4)cnc3cn2)CC1"
readout = "IC50"
endpoint_unit = "nM"
value_measured = 18

[[record]]
molecule = "O=C1CCCN1c1cn2c(-c3nc(N[C@H]4CNC[C@@H]4F)c(F)cc3F)cnc2cn1"
readout = "IC50"
endpoint_unit = "nM"
value_measured = 137

